Values from ChEMBL document CHEMBL1134845

# Test system: U-251
# assayComment: Growth inhibitory activity was determined against U-251 cancer cell line of CNS cancer
# Type: functional
# reportedConditions: Homo sapiens
Returns: string. Value is 1.0 if measured GI50 is below 6 µM, and 0.0 if it is greater than or equal to it.

{"compound": "CC(C)CCCC(C)[C@H]1CC[C@H]2[C@H](CC(=O)O)[C@@H](C(C)CCCCC#N)CC[C@]12C (stereo in doubt; 22)", "categoryLabel": 1.0}
{"compound": "C/C(=C\\CCCC#N)[C@H]1CC[C@]2(C)[C@@H]([C@H](C)CCCC(C)C)CC[C@H]2[C@@H]1CC(=O)O", "categoryLabel": 1.0}
{"compound": "CC(C)CCC[C@@H](C)[C@H]1CC[C@H]2[C@@H]3CC(=O)O[C@](C)(CCCCC#N)[C@H]3CC[C@]12C", "categoryLabel": 1.0}
{"compound": "CC(C)CCC[C@@H](C)[C@H]1CC[C@H]2[C@H](CC(=O)O)[C@@H]([C@@]3(C)CCCCC3=O)CC[C@]12C", "categoryLabel": 0.0}
{"compound": "CC(C)CCCC(C)[C@H]1CC[C@H]2[C@@H]3CC(=O)O[C@](C)(CC/C=C\\C#N)[C@H]3CC[C@]12C (stereo partly specified)", "categoryLabel": 0.0}
